Documented normalized growth across a set of compounds
method_notes: chemical genetic growth profiling, strain panel (AID 1159580);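 also: tested at 20 µM; growth read once vehicle control cultures reached saturation at 30 °C; 1 = growth at the plate median or of vehicle wells; lower values mean less growth of the strain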
setup_conditions: S. cerevisiae deletion strains, growth OD, locus YER167W, strain BCK2, hits give low values
Among all 5,500 compounds or so, about 2,000 (36%) were called active. Roughly 18% stayed inconclusive and do not appear here. The list shows a part of the results.
Number only, please.

Need normalized growth of CC12CCC(=O)C=C1CCC1C2[C@@H](O)CC2(C)C1CC[C@]2(O)C(=O)COP(=O)(O)O (stereo partly specified) , thanks.
1.01

Need normalized growth of "O=C(O)c1cccnc1" , thanks.
0.982

Need normalized growth of CC(C)CCCC(C)[C@H]1CCC2C3CC=C4C[C@@H](O)CC[C@]4(C)C3CC[C@@]21C (stereo partly specified) , thanks.
1

Need normalized growth of "N=C(N)N" , thanks.
1.02

Need normalized growth of "CN(C)C(=O)Oc1cccc([N+](C)(C)C)c1" , thanks.
0.987

Need normalized growth of CC(Cc1cccc(C(F)(F)F)c1)NCCOC(=O)c1ccccc1 (stereo unspecified) , thanks.
0.985

Need normalized growth of "CNNC" , thanks.
1.02

Need normalized growth of CC(=O)O[C@@H]1CC[C@@]2(C)C(C[C@@H](OC(C)=O)[C@@]3(C)C4=CC(=O)O[C@@H](c5ccoc5)[C@]4(C)CCC23)C1(C)C (stereo partly specified) , thanks.
1.02

Need normalized growth of "C=C1C[C@]23C[C@@]1(O)CC[C@H]2[C@@]12C=C[C@H](O)[C@@](C)(C(=O)O1)[C@H]2[C@@H]3C(=O)O" , thanks.
0.989

Need normalized growth of "CN(C)c1ccc(O)c2c1C[C@H]1C[C@H]3[C@H](N(C)C)C(=O)C(C(N)=O)=C(O)[C@@]3(O)C(=O)C1=C2O" , thanks.
0.984

Need normalized growth of CC(=O)O[C@H]1CC[C@@]2(C)C(C[C@@H](OC(C)=O)[C@@]3(C)C4=CC(=O)O[C@@H](c5ccoc5)[C@]4(C)CCC23)C1(C)C (stereo partly specified) , thanks.
1.01

Need normalized growth of CC(=O)O[C@@H]1CC2C(C)(C)C(=O)C=C[C@]2(C)C2CC[C@]3(C)C(=CC(=O)O[C@H]3c3ccoc3)[C@@]21C (stereo partly specified) , thanks.
0.975

====

method_notes: chemical genetic growth profiling, strain panel (AID 1159580)
setup_conditions: S. cerevisiae deletion strains, growth OD, locus YMR205C, strain PFK2, hits give low values
About 2,000 (36%) of roughly 5,500 compounds were called active. Inconclusive results (about 18%) are left out. This is one part of the list.
Documented normalized growth across a set of compounds
Number only, please.

Sample records with normalized growth:
| compound | normalized growth |
| --- | --- |
| CN(C)[C@@H]1C(=O)C(C(=O)NCN2CCCC2)=C(O)[C@@]2(O)C(=O)C3=C(O)c4c(O)cccc4[C@@](C)(O)[C@H]3C[C@@H]12 | 1.01 |
| CC1=CC(=O)c2c(O)cccc2C1=O | 0.0815 |
| CC(CCC(=O)O)[C@H]1CCC2C3CC[C@@H]4C[C@H](O)CC[C@]4(C)C3C=C[C@@]21C (stereo partly drawn) | 0.966 |

Need normalized growth of "CC1=CC(=O)c2ccccc2C1=O" , thanks.
0.799

====

Documented normalized growth across a set of compounds
method_notes: chemical genetic growth profiling, strain panel (AID 1159580)
setup_conditions: S. cerevisiae deletion strains, growth OD, locus YBR171W, strain sec66, hits give low values
The whole screen tested about 5,500 compounds, of which about 2,000 (36%) were called active. About 18% were inconclusive and are not listed. This is one part of the list.
Number only, please.

Sample records with normalized growth:
| compound | normalized growth |
| --- | --- |
| CC(C)c1ccc2c(c1)CCC1C(C)(C(N)=O)CCCC21C (stereo not given) | 0.952 |
| COC(=O)c1c(OC)cc2c(c1C)Oc1c(Cl)c(OC(C)=O)c(Cl)c(C)c1C(=O)O2 | 1 |

Need normalized growth of "OC[C@H]1O[C@@H](O[C@H]2[C@H](O)[C@@H](O)[C@@H](O)O[C@@H]2CO)[C@H](O)[C@@H](O)[C@@H]1O" , thanks.
0.996

Need normalized growth of "CC1=CC(=O)c2c(O)cccc2C1=O" , thanks.
0.0747

Need normalized growth of "CC1=CC(=O)c2ccccc2C1=O" , thanks.
1.03

====

Documented normalized growth across a set of compounds
method_notes: chemical genetic growth profiling, strain panel (AID 1159580);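 also: tested at 20 µM; growth read once vehicle control cultures reached saturation at 30 °C; 1 = growth at the plate median or of vehicle wells; lower values mean less growth of the strain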
setup_conditions: S. cerevisiae deletion strains, growth OD, locus YKL085W, strain MDH1 (second series), hits give low values
About 2,000 (36%) of roughly 5,500 compounds were called active. Another 18% or so got no clear call; they are omitted. The list shows a part of the results.
Number only, please.

| compound | normalized growth |
| --- | --- |
| CC(=O)Oc1cccc(O)c1 | 1 |
| CCCSc1ccc2nc(NC(=O)OC)[nH]c2c1 | 0.986 |
| CCCc1c(OCCCCc2nn[nH]n2)ccc(C(C)=O)c1O | 0.999 |
| C[C@H](CCC(=O)O)[C@H]1CCC2C3C(=O)CC4CC(=O)CC[C@]4(C)C3CC(=O)[C@@]21C (some centres undefined) | 1.02 |
| CC(=O)Oc1ccc(C(c2ccc(OC(C)=O)cc2)c2ccccn2)cc1 | 0.986 |
| CN(C)CCCN1c2ccccc2CCc2ccc(Cl)cc21 | 0.994 |
| CC(=O)Oc1ccc(/C=C/c2cc(OC(C)=O)cc(OC(C)=O)c2)cc1 | 0.999 |
| CN(C)CCCN1c2ccccc2CCc2ccccc21 | 0.987 |

Here's the next entry for you.
Need normalized growth of "CN(C)CCCN1c2ccccc2Sc2ccc(C(F)(F)F)cc21" , thanks.
0.994

====

method_notes: chemical genetic growth profiling, strain panel (AID 1159580);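 also: tested at 20 µM; growth read once vehicle control cultures reached saturation at 30 °C; 1 = growth at the plate median or of vehicle wells; lower values mean less growth of the strain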
setup_conditions: S. cerevisiae deletion strains, growth OD, locus YHR013C, strain ard1
Hit rate of the full screen: of about 5,500 compounds, about 2,000 (36%) were called active. Roughly 18% stayed inconclusive and do not appear here. Rule as the data show it: active = normalized growth mostly below about 0.91 (no sharp cut-off); inconclusive = no clear call, values can overlap the other calls; inactive = mostly above about 0.92. The list shows a part of the results.
Hi! Could you answer with just one of these? 1 (yes) (active), 0 (no) (inactive)

These solved cases illustrate the format of a correct answer.
| compound | assigned_class |
| --- | --- |
| CNNC | 0 (no) |
| O=C(O)c1ccccc1 | 0 (no) |
| NC(=O)c1cccnc1 | 0 (no) |

So what was the verdict on "CN(C)[C@@H]1C(=O)C(C(N)=O)=C(O)[C@@]2(O)C(=O)C3=C(O)c4c(O)ccc(Cl)c4[C@@H](O)[C@H]3C[C@@H]12" in this test?
0 (no)

So what was the verdict on "COC(=O)c1c(OC)cc2c(c1C)Oc1c(Cl)c(O)c(Cl)c(C)c1C(=O)O2" in this test?
0 (no)

So what was the verdict on "C[n+]1ccccc1/C=N/O" in this test?
0 (no)

So what was the verdict on "CN(C)[C@@H]1C(=O)C(C(N)=O)=C(O)[C@@]2(O)C(=O)C3=C(O)c4c(O)ccc(Cl)c4[C@@](C)(O)[C@H]3C[C@@H]12" in this test?
0 (no)

So what was the verdict on COC1CC2CCC(C)C(O)(O2)C(=O)C(=O)N2CCCCC2C(=O)OC(C(C)CC2CCC(O)C(OC)C2)CC(=O)C(C)/C=C(\C)C(O)C(OC)C(=O)C(C)CC(C)/C=C/C=C/C=C/1C (stereo not drawn) in this test?
1 (yes)

====

method_notes: chemical genetic growth profiling, strain panel (AID 1159580);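 also: tested at 20 µM; growth read once vehicle control cultures reached saturation at 30 °C; 1 = growth at the plate median or of vehicle wells; lower values mean less growth of the strain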
setup_conditions: S. cerevisiae deletion strains, growth OD, locus YNR052C, strain pop2, hits give low values
Among all 5,500 compounds or so, about 2,000 (36%) were called active. Another 18% or so got no clear call; they are omitted. The list shows a part of the results.
result_type: normalized growth
Number only, please.

Sample records with normalized growth:
| molecule | result_type | quantitative_readout |
| --- | --- | --- |
| Cc1ccc2c(c1)C1(C)CCCC(C)(C(=O)O)C1CC2 (stereo not drawn) | normalized growth | 1.02 |
| CN(C)C1C(=O)C(C(N)=O)=C(O)C2(O)C(=O)C3=C(O)c4c(O)ccc(Cl)c4C(C)(O)C3CC12 (stereo not drawn) | normalized growth | 0.974 |
| CC(=O)O[C@H]1CC[C@@]2(C)C(=CC(=O)C3C4CCC(C(C)CCCC(C)C)[C@@]4(C)CCC32)C1 (stereo partly drawn) | normalized growth | 0.975 |
| CC(C)c1ccc2c(c1)CCC1C(C)(C(N)=O)CCCC21C (stereo not drawn) | normalized growth | 0.847 |

Need normalized growth of "CCN(CC)CCOC(=O)C1(C2CCCCC2)CCCCC1" , thanks.
0.961

Need normalized growth of CC(=O)O[C@@H]1CC[C@@]2(C)C(C[C@@H](OC(C)=O)[C@@]3(C)C4=CC(=O)O[C@@H](c5ccoc5)[C@]4(C)CCC23)C1(C)C (stereo partly drawn) , thanks.
0.993

Need normalized growth of "O=C1NC(O)=NC1(c1ccccc1)c1ccccc1" , thanks.
1.01

Need normalized growth of "C=C1c2cccc(O)c2C(O)=C2C(=O)[C@]3(O)C(O)=C(C(N)=O)C(=O)[C@@H](N(C)C)[C@@H]3[C@@H](O)[C@H]12" , thanks.
0.982

Need normalized growth of "COC(=O)c1c(OC)cc2c(c1C)Oc1c(Cl)c(O)c(Cl)c(C)c1C(=O)O2" , thanks.
0.948

Need normalized growth of "C[C@H]1c2cccc(O)c2C(O)=C2C(=O)[C@]3(O)C(O)=C(C(N)=O)C(=O)[C@@H](N(C)C)[C@@H]3[C@@H](O)[C@@H]21" , thanks.
0.979

Need normalized growth of Cc1c(C)c2c(c(C)c1O)CCC(C)(CCCC(C)CCCC(C)CCCC(C)C)O2 (stereo not drawn) , thanks.
1.02

Need normalized growth of "C/C1=C/CC(C)(C)/C=C/C/C(C)=C/CC1" , thanks.
0.964

Need normalized growth of CC(C)CC(NC(=O)OCC1c2ccccc2-c2ccccc21)C(=O)O (stereo not drawn) , thanks.
1.01

Need normalized growth of "Oc1c(Cl)cc(Cl)cc1Sc1cc(Cl)cc(Cl)c1O" , thanks.
0.982

Need normalized growth of "CCCc1cc(=O)[nH]c(=S)[nH]1" , thanks.
0.991

Need normalized growth of "N[C@@H](CCC(=O)N[C@@H](CS)C(=O)NCC(=O)O)C(=O)O" , thanks.
0.988

Need normalized growth of CC(C)CC1NC(=O)CNC1=O (stereo not drawn) , thanks.
0.981

Need normalized growth of "Nc1ccc(C(=O)O)cc1" , thanks.
1

Need normalized growth of "O=C(O)c1ccc(S(=O)(=O)N(Cl)Cl)cc1" , thanks.
1.01

Need normalized growth of "CN(C)[C@@H]1C(=O)C(C(N)=O)=C(O)[C@@]2(O)C(=O)C3=C(O)c4c(O)ccc(Cl)c4[C@@H](O)[C@H]3C[C@@H]12" , thanks.
0.998

Need normalized growth of CC(C)CCCC(C)[C@H]1CCC2C3CC=C4C[C@@H](O)CC[C@]4(C)C3CC[C@@]21C (stereo partly drawn) , thanks.
0.99

Need normalized growth of CC(C)CCCC(C)C1CCC2C3=CC[C@H]4C[C@@H](O)CC[C@]4(C)C3CC[C@@]21C (stereo partly drawn) , thanks.
0.984

Need normalized growth of "Cc1cc(=O)[nH]c(=S)[nH]1" , thanks.
1.01
